Attribution: patent US20140073589A1

Method notes: Pharmacokinetics of prodrug and amphetamine after oral dosing to male dogs (Example 20)
Test context: male, dog, in vivo, po, 0.5 mg
Exercise: for every item that follows, state its recorded Tmax.
Numbers only, in min.

CC(=O)N[C@H]1C(O)O[C@H](CO)[C@H](O)C1O[C@H](C)C(=O)N[C@@H](C)Cc1ccccc1 (stereo partly shown) = 60
CCC(=O)N[C@H]1C(O)O[C@H](CO)[C@@H](O)[C@@H]1O[C@H](C)C(=O)N[C@@H](C)Cc1ccccc1 (stereo partly shown) = 30
CC(=O)N[C@H]1[C@@H]2OC[C@@H](O2)[C@@H](O)[C@@H]1O[C@H](C)C(=O)N[C@H](C)Cc1ccccc1 = 30

Turning to the following compound.
Which Tmax reading was recorded for the compound CC(=O)N[C@@H](C=O)[C@@H](O[C@H](C)C(=O)N[C@H](C)Cc1ccccc1)[C@H](O)[C@H](O)CO ?
45

====

Method notes: Pharmacokinetics of prodrug and amphetamine after oral dosing to male dogs (Example 20)
Test context: male, dog, in vivo, po, 0.5 mg
Exercise: for every item that follows, state its recorded AUC.
Numbers only, in ng·h/mL.

CC(=O)N[C@H]1[C@@H]2OC[C@@H](O2)[C@@H](O)[C@@H]1O[C@H](C)C(=O)N[C@H](C)Cc1ccccc1 = 213
CC(=O)N[C@@H](C=O)[C@@H](O[C@H](C)C(=O)N[C@H](C)Cc1ccccc1)[C@H](O)[C@H](O)CO = 564
CC(=O)N[C@H]1C(O)O[C@H](CO)[C@H](O)C1O[C@H](C)C(=O)N[C@@H](C)Cc1ccccc1 (stereo partly shown) = 354

Turning to the following compound.
Which AUC reading was recorded for the compound CCC(=O)N[C@H]1C(O)O[C@H](CO)[C@@H](O)[C@@H]1O[C@H](C)C(=O)N[C@@H](C)Cc1ccccc1 (stereo partly shown) ?
273
